test system: U2OS; test: Multiplex assay against U2OS; assay type: toxicity, cell-based; details: human, 12 h, 10 µM, compound concentration 10 uM, replicate 2

- Compound: "COc1cc2ncnc(Nc3ccc(F)c(Cl)c3)c2cc1NC(=O)/C=C/CN1CCCCC1 [DACOMITINIB ANHYDROUS]"
  Study System: "U2OS"
  Total Cell Count: 118
- Compound: "S=C(NCCCc1c[nH]cn1)NCCCN(Cc1ccc(Cl)c(Cl)c1)c1ccc(Br)cn1"
  Study System: "U2OS"
  Total Cell Count: 33
- Compound: "CCOc1cc(C(=O)N2CCC(N3CCN(C)CC3)CC2)ccc1Nc1ncc2c(n1)N(C1CCCC1)c1ccccc1C(=O)N2C"
  Study System: "U2OS"
  Total Cell Count: 69
- Compound: "CCOC(=O)c1c(C)[nH]c2ccc3c(c12)CN1CCc2cc(OC)ccc2C1O3 (stereo not given)"
  Study System: "U2OS"
  Total Cell Count: 84
- Compound: "O=C1NC(=O)C(c2cnc3ccccn23)=C1c1cn2c3c(cc(F)cc13)CN(C(=O)N1CCCCC1)CC2"
  Study System: "U2OS"
  Total Cell Count: 63

---

test system: Fibroblast; assay: Multiplex assay against human fibroblast; format: toxicity, cell-based; conditions: 12 h, 10 µM, compound concentration 10 uM, replicate 2
Catalogue of Population Apoptotic (%) values

- Compound: "Cl.Oc1ccc2c3c1O[C@H]1c4[nH]c5c(c4C[C@@]4(O)[C@@H](C2)N(CC2CC2)CC[C@]314)C[C@@]1(O)[C@H]2Cc3ccc(O)c4c3[C@@]1(CCN2CC1CC1)[C@H]5O4"
  Population Apoptotic (%): 93
- Compound: "CN(C)C(=O)C(CCN1CCC(O)(c2ccc(Cl)cc2)CC1)(c1ccccc1)c1ccccc1.Cl [LOPERAMIDE HYDROCHLORIDE]"
  Population Apoptotic (%): 82
- Compound: "CCn1c(=O)c(-c2ccc(-c3cncs3)cc2Cl)cc2cnc(Nc3ccc(N4CCN(C)CC4)cc3)nc21"
  Population Apoptotic (%): 11
- Compound: "CCN1CCN(c2ccc(Nc3cc(N(C)C(=O)Nc4c(Cl)c(OC)cc(OC)c4Cl)ncn3)cc2)CC1 [INFIGRATINIB]"
  Population Apoptotic (%): 75
- Compound: "CCc1cccc(CC)c1NC(=O)c1nn(C)c2c1CCc1cnc(Nc3ccc(N4CCN(C)CC4)cc3OC)nc1-2"
  Population Apoptotic (%): 20
- Compound: "CN1C2CCC1CC(OC(c1ccc(F)cc1)c1ccc(F)cc1)C2.Cl (stereo not given)"
  Population Apoptotic (%): 80
- Compound: "Cc1cn(-c2cc(NC(=O)c3ccc(C)c(Nc4nccc(-c5cccnc5)n4)c3)cc(C(F)(F)F)c2)cn1 [NILOTINIB]"
  Population Apoptotic (%): 33
- Compound: "CN1CCN(C(=O)C(C)(C)c2ccc(C(=O)Nc3cn4cc(-c5cc(C(C)(C)C)cc(C(C)(C)C)c5)ccc4n3)cc2)CC1 [T3-CLK-N]"
  Population Apoptotic (%): 50
- Compound: "Cl.O=c1c2cccn2c2ccccc2n1CCCN1CCC(c2ccc(Cl)cc2)CC1"
  Population Apoptotic (%): 78
- Compound: "NC(=O)c1cccc(-c2cc(Nc3ccc(OC(F)(F)F)cc3)ncn2)c1"
  Population Apoptotic (%): 60

---

Catalogue of Population Hoechst High Intensity Objects (%) values
system: HEK-293T; experiment: Multiplex assay against HEK293T; assay type: toxicity, cell-based; settings: human, 48 h, 10 µM, compound concentration 10 uM, replicate 2
Measured Endpoint: Population Hoechst High Intensity Objects (%)

- Compound: "O=C1N/C(=N/c2ccccc2F)S/C1=C\\c1ccc(C(=O)O)cc1"
  Observed Measurement: 2
- Compound: "O=C(Nc1ccc(-n2nc(-c3cccnc3)cc2C(F)(F)F)cn1)c1ccc(-c2ccccc2)c(F)c1 [BI 2049]"
  Observed Measurement: 2
- Compound: "CN1CCN(C(=O)C(C)(C)c2ccc(C(=O)Nc3cn4cc(-c5ccncc5)ccc4n3)cc2)CC1 [T3-CLK]"
  Observed Measurement: 4
- Compound: "CCc1cccc(CC)c1NC(=O)c1nn(C)c2c1CCc1cnc(Nc3ccc(C(=O)NC4CCN(C)CC4)cc3OC(F)(F)F)nc1-2"
  Observed Measurement: 13
